Origin of measurements: paper PMC11082923

MEASURED ON: TAS2R16 (Homo sapiens, UniProt Q9NYV7)
Sequence (Q9NYV7 1-291): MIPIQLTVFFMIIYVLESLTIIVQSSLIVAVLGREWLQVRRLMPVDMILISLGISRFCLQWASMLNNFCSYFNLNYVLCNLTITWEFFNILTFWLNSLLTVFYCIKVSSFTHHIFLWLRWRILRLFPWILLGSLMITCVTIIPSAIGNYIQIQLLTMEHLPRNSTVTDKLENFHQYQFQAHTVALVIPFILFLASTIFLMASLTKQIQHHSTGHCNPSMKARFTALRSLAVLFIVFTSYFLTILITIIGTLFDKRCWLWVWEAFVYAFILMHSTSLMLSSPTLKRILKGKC
ASSAY EXPLANATION: Fluo4-AM calcium imaging
Type: cell-based
ENDPOINT LABEL: EC50 (mM)
Value expressed in mM; do not type the unit.

For this molecule ( OCc1ccccc1O[C@@H]1O[C@H](CO)[C@@H](O)[C@H](O)[C@H]1O ), measured EC50 is 1.28
